Entries annotated with measured TBIL
# Species: Rattus norvegicus
# Experiment: Open TG-GATES - Regimen: Daily Repeat
# Assay type: toxicity, organism-based, Sprague-Dawley
# Parameters: regimen Daily Repeat, gender Male, age 6 weeks
# Assay context: in vivo, po, 100 mg/kg, […], tissue Plasma, route gavage, dose level Low, time 28 day

| Chemical string | Unit label | TBIL |
| --- | --- | --- |
| CNC(=C[N+](=O)[O-])NCCSCc1ccc(CN(C)C)o1 | mg/dL | 0.2 |
| O=C(OC[C@H]1O[C@@H](OC(=O)c2cc(O)c(O)c(OC(=O)c3cc(O)c(O)c(O)c3)c2)[C@H](OC(=O)c2cc(O)c(O)c(OC(=O)c3cc(O)c(O)c(O)c3)c2)[C@@H](OC(=O)c2cc(O)c(O)c(OC(=O)c3cc(O)c(O)c(O)c3)c2)[C@@H]1OC(=O)c1cc(O)c(O)c(OC(=O)c2cc(O)c(O)c(O)c2)c1)c1cc(O)c(O)c(OC(=O)c2cc(O)c(O)c(O)c2)c1 | mg/dL | 0.3 |
| COC(=O)C1=C(C)NC(C)=C(C(=O)OC)C1c1ccccc1[N+](=O)[O-] | mg/dL | 0.024 |
| CN/C(=N/CCSCc1nc[nH]c1C)NC#N | mg/dL | 0.2 |
| CCOc1ccc(NC(C)=O)cc1 | mg/dL | 0.052 |
| Cc1nnc2n1-c1ccc(Cl)cc1C(c1ccccc1Cl)=NC2 | mg/dL | 0.054 |

###

# Organism: Rattus norvegicus
# Experiment: Open TG-GATES - Regimen: Single
# Assay type: toxicity, organism-based, Sprague-Dawley
# Set-up: regimen Single, gender Male, age 6 weeks
# Assay context: in vivo, po, 0 mg/kg, 9 h, tissue Blood, route gavage, dose level Control
Observed property: Eos (%)

| Compound | Result number |
| --- | --- |
| CCOc1ccc(NC(C)=O)cc1 [PHENACETIN] | 0.8 |
| CNC(=C[N+](=O)[O-])NCCSCc1ccc(CN(C)C)o1 [RANITIDINE] | 1 |
| Brc1ccccc1 [BROMOBENZENE] | 1 |
| CN1C(=O)CCS(=O)(=O)C1c1ccc(Cl)cc1 (stereo unspecified) [CHLORMEZANONE] | 1 |
| Nc1c2c(nc3ccccc13)CCCC2 [TACRINE] | 1 |
| CC(C)NNC(=O)c1ccncc1 [IPRONIAZID] | 1 |

###

# Organism: Rattus norvegicus
# Experiment: Open TG-GATES - Regimen: Daily Repeat
# Type: toxicity, organism-based, Sprague-Dawley
# Set-up: regimen Daily Repeat, gender Male, age 6 weeks
# Assay context: in vivo, po, 1000 mg/kg, […], tissue Kidney, route gavage, dose level High, time 14 day

| Compound | KIDNEY_R |
| --- | --- |
| CNC(=C[N+](=O)[O-])NCCSCc1ccc(CN(C)C)o1 [RANITIDINE] | 1.2 g |
| Cc1nnc2n1-c1ccc(Cl)cc1C(c1ccccc1Cl)=NC2 [TRIAZOLAM] | 1.3 g |
| CN/C(=N/CCSCc1nc[nH]c1C)NC#N [CIMETIDINE] | 1.3 g |
| CCOc1ccc(NC(C)=O)cc1 [PHENACETIN] | 1.3 g |
| O=C(OC[C@H]1O[C@@H](OC(=O)c2cc(O)c(O)c(OC(=O)c3cc(O)c(O)c(O)c3)c2)[C@H](OC(=O)c2cc(O)c(O)c(OC(=O)c3cc(O)c(O)c(O)c3)c2)[C@@H](OC(=O)c2cc(O)c(O)c(OC(=O)c3cc(O)c(O)c(O)c3)c2)[C@@H]1OC(=O)c1cc(O)c(O)c(OC(=O)c2cc(O)c(O)c(O)c2)c1)c1cc(O)c(O)c(OC(=O)c2cc(O)c(O)c(O)c2)c1 [TANNIC ACID] | 1.1 g |
| COC(=O)C1=C(C)NC(C)=C(C(=O)OC)C1c1ccccc1[N+](=O)[O-] [NIFEDIPINE] | 1.2 g |
